Provenance of the data: patent EP1005460B1

targetSystem: Cox-1 (Homo sapiens, UniProt P23219)
Sequence (P23219 24-599): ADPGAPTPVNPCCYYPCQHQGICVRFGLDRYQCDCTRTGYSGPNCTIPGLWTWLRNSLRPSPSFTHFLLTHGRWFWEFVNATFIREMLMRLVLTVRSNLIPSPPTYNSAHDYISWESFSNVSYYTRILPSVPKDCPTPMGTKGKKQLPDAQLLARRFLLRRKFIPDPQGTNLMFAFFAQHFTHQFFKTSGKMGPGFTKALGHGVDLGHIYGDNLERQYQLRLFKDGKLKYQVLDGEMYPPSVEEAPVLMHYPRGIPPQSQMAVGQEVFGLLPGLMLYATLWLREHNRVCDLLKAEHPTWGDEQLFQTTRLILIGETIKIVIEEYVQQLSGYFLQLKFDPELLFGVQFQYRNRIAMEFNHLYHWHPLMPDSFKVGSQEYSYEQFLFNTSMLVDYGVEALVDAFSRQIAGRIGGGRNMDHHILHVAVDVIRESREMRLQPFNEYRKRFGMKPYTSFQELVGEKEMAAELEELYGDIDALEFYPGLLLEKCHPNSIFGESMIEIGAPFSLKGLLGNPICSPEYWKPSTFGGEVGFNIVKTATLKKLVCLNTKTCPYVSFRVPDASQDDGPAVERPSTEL
experimentDescription: Recombinant human PGHS-1 (Cox-1) enzyme assay, PGE2 by EIA
Assay type: biochemical
Parameters: made in house; host or cells: baculovirus/Sf9 insect cells (microsomes)
conditionSet: microsomes, 60 min preincubation, 10 µM arachidonic acid, read-out: RHUCX1 Cox-1 percent inhibition
property: inhibition at 100 µM (%)

Consider the worked cases shown below.
1. CCCCn1nc(-c2ccc(F)cc2)c(-c2ccc(S(C)(=O)=O)cc2)cc1=O ... 19
2. CS(=O)(=O)c1ccc(-c2cc(=O)n(C3CCCCC3)nc2-c2ccc(F)cc2)cc1 ... 16
3. CC#CCn1nc(-c2ccc(F)cc2)c(-c2ccc(S(C)(=O)=O)cc2)cc1=O ... 3
4. CS(=O)(=O)c1ccc(-c2cc(=O)n(C3CCCC3)nc2-c2ccc(F)cc2)cc1 ... 7
5. CS(=O)(=O)c1ccc(-c2cc(=O)n(CC3CCCC3)nc2-c2ccc(F)cc2)cc1 ... 23
6. CC(C)=CCn1nc(-c2ccc(F)cc2)c(-c2ccc(S(C)(=O)=O)cc2)cc1=O ... 62
7. CCCCCn1nc(-c2ccc(F)cc2)c(-c2ccc(S(C)(=O)=O)cc2)cc1=O ... 23
8. C#CCn1nc(-c2ccc(F)cc2)c(-c2ccc(S(C)(=O)=O)cc2)cc1=O ... 0
9. CS(=O)(=O)c1ccc(-c2cc(=O)n(CC3CCCCC3)nc2-c2ccc(F)cc2)cc1 ... 52
10. CS(=O)(=O)c1ccc(-c2cc(=O)n(CC(F)(F)F)nc2-c2ccc(F)cc2)cc1 ... 0

(I) CS(=O)(=O)c1ccc(-c2cc(=O)n(Cc3ccccc3)nc2-c2ccc(F)cc2)cc1
(II) CS(=O)(=O)c1ccc(-c2cc(=O)n(Cc3ccc(F)cc3)nc2-c2ccc(F)cc2)cc1
(III) CS(=O)(=O)c1ccc(-c2cc(=O)n(CC3CC3)nc2-c2ccc(F)cc2)cc1
Sequence the entries by inhibition at 100 µM, beginning with the highest number. Record the ranking as a list of labels in the requested order.
III, I, II
(III: 24%, I: 4%, II: 2%)

###

targetSystem: UniProt:P35354
Sequence (P35354 18-604): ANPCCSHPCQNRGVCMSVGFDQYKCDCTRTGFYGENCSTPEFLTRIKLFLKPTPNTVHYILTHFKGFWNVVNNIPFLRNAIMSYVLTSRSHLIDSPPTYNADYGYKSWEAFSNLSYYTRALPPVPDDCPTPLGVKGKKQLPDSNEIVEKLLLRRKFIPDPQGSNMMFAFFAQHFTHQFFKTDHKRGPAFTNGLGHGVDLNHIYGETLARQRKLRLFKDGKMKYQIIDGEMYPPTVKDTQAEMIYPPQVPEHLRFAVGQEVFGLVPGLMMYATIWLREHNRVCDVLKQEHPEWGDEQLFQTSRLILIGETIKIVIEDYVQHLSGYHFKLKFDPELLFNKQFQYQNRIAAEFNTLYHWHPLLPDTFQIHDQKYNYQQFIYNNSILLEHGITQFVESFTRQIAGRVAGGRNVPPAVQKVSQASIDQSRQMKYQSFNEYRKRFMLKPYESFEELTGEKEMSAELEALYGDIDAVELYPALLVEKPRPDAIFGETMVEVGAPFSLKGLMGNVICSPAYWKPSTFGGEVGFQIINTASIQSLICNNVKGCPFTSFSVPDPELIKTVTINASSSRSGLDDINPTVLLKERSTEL
experimentDescription: Recombinant human PGHS-2 (Cox-2) enzyme assay, PGE2 by EIA
conditionSet: microsomes, 60 min preincubation, 10 µM arachidonic acid; read-out: RHUCX2 Cox-2 IC50 (parenthetical values)
Experimental: To compare the mean responses of the treatment groups, analysis of variance was applied. Percent inhibition values were determined by comparing the individual treatment mean values to the mean of the control group. […] EIA reagents for prostaglandin determination were purchased from Perseptive Diagnostics, (Cambridge, MA). PGE2 levels in lavage fluids were determined after the samples were dried under nitrogen and reconstituted with assay buffer. […]
pIC50: −log10 of the molar value.
property: pIC50

Field: example entries. Status: answers known.
1) C#CCn1nc(-c2ccc(F)cc2)c(-c2ccc(S(C)(=O)=O)cc2)cc1=O ... 6.07
2) CS(=O)(=O)c1ccc(-c2cc(=O)n(CC3CCCCC3)nc2-c2ccc(F)cc2)cc1 ... 8.30
3) CS(=O)(=O)c1ccc(-c2cc(=O)n(Cc3ccccc3)nc2-c2ccc(F)cc2)cc1 ... 7.70

(1) CS(=O)(=O)c1ccc(-c2cc(=O)n(CC3CC3)nc2-c2ccc(F)cc2)cc1
(2) CC(c1ccc(F)cc1)n1nc(-c2ccc(F)cc2)c(-c2ccc(S(C)(=O)=O)cc2)cc1=O (centres unmarked)
Hi team, can someone confirm which has the larger pIC50: 1 or 2 ? Thanks. Refer to your chosen item by its label in the answer.
1

###

targetSystem: Cox-1 (Homo sapiens)
experimentDescription: U937 cell assay, Cox-1 activity by EIA
Format: cell-based
Parameters: host or cells: U937 cells
conditionSet: U-937; U937 cells; at 10 µM; read-out: U937 percent inhibition
property: inhibition at 10 µM (%)

Worked examples follow.
1) CS(=O)(=O)c1ccc(-c2cc(=O)n(CC3CC3)nc2-c2ccc(F)cc2)cc1 ... 30
2) CS(=O)(=O)c1ccc(-c2cc(=O)n(Cc3ccc(F)cc3)nc2-c2ccc(F)cc2)cc1 ... 62
3) CS(=O)(=O)c1ccc(-c2cc(=O)n(CC3CCC3)nc2-c2ccc(F)cc2)cc1 ... 60

(P) CC(C)=CCn1nc(-c2ccc(F)cc2)c(-c2ccc(S(C)(=O)=O)cc2)cc1=O
(Q) C#CCn1nc(-c2ccc(F)cc2)c(-c2ccc(S(C)(=O)=O)cc2)cc1=O
Given the listed items, does P or Q have the lesser reported inhibition at 10 µM? Refer to your chosen item by its label in the answer.
Q
